# methodSummary: Binding affinity to poly(dA-dT)2 DNA (unknown origin) in pH 7.4 sodium cacodylate buffer by UV-Visible titration method
Peptide text beside a SMILES is read from it. * marks the point of attachment. Pyrrole2CO(5-CO-guanidino) = N=C(N)NC(=O)c1ccc(C(=O)*)[nH]1
propertyName: log Ks
Just the number, please, no unit after it.

molecule	log Ks
N=C(N)NC(=O)c1ccc(C(=O)NCCCC[C@H](NC(=O)[C@H](CCCCNC(=O)c2ccc(C(=O)NC(=N)N)[nH]2)NC(=O)c2ccc(C(=O)NC(=N)N)[nH]2)C(N)=O)[nH]1	4.8
N=C(N)NC(=O)c1ccc(C(=O)NCCCC[C@H](NC(=O)[C@@H](N)CCCCNC(=O)c2ccc(C(=O)NC(=N)N)[nH]2)C(N)=O)[nH]1	4.6
N=C(N)NC(=O)c1ccc(C(=O)NCCCC[C@H](NC(=O)[C@H](CCCCN)NC(=O)[C@H](CCCCN)NC(=O)[C@@H](N)CCCCN)C(N)=O)[nH]1 (H-KKKK(Pyrrole2CO(5-CO-guanidino))-NH2)	5.5

Moving on to another molecule below.
Task: Given the entry N=C(N)NC(=O)c1ccc(C(=O)NCCCC[C@H](NC(=O)[C@H](CCCCNC(=O)c2ccc(C(=O)NC(=N)N)[nH]2)NC(=O)[C@H](CCCCNC(=O)c2ccc(C(=O)NC(=N)N)[nH]2)NC(=O)[C@@H](N)CCCCNC(=O)c2ccc(C(=O)NC(=N)N)[nH]2)C(N)=O)[nH]1 (H-K(Pyrrole2CO(5-CO-guanidino))K(Pyrrole2CO(5-CO-guanidino))K(Pyrrole2CO(5-CO-guanidino))K(Pyrrole2CO(5-CO-guanidino))-NH2) , report its measured log Ks.
Output: 5.6

====

# Organism: Bos taurus
# methodSummary: Binding affinity to calf thymus duplex DNA in pH 7.4 sodium cacodylate buffer by UV-Visible titration method
Peptide text beside a SMILES is read from it. * marks the point of attachment. Pyrrole2CO(5-CO-guanidino) = N=C(N)NC(=O)c1ccc(C(=O)*)[nH]1
log Ks values for the compounds below.

Previously resolved entries follow.
compound	propertyName	measuredValue
N=C(N)NC(=O)c1ccc(C(=O)NCCCC[C@H](NC(=O)[C@H](CCCCN)NC(=O)[C@H](CCCCN)NC(=O)[C@@H](N)CCCCN)C(N)=O)[nH]1 (H-KKKK(Pyrrole2CO(5-CO-guanidino))-NH2)	log Ks	6.1
N=C(N)NC(=O)c1ccc(C(=O)NCCCC[C@H](NC(=O)[C@H](CCCCNC(=O)c2ccc(C(=O)NC(=N)N)[nH]2)NC(=O)c2ccc(C(=O)NC(=N)N)[nH]2)C(N)=O)[nH]1	log Ks	4.6
N=C(N)NC(=O)c1ccc(C(=O)NCCCC[C@H](NC(=O)[C@H](CCCCNC(=O)c2ccc(C(=O)NC(=N)N)[nH]2)NC(=O)[C@H](CCCCNC(=O)c2ccc(C(=O)NC(=N)N)[nH]2)NC(=O)[C@@H](N)CCCCNC(=O)c2ccc(C(=O)NC(=N)N)[nH]2)C(N)=O)[nH]1 (H-K(Pyrrole2CO(5-CO-guanidino))K(Pyrrole2CO(5-CO-guanidino))K(Pyrrole2CO(5-CO-guanidino))K(Pyrrole2CO(5-CO-guanidino))-NH2)	log Ks	5.4

Task: Any idea what its log Ks is? The compound is `N=C(N)NC(=O)c1ccc(C(=O)NCCCC[C@H](NC(=O)[C@@H](N)CCCCNC(=O)c2ccc(C(=O)NC(=N)N)[nH]2)C(N)=O)[nH]1`
Output: 4.9

====

# methodSummary: Binding affinity to poly(rA).(rU) RNA duplex (unknown origin) in pH 7.4 sodium cacodylate buffer by UV-Visible titration method
Peptide text beside a SMILES is read from it. * marks the point of attachment. Pyrrole2CO(5-CO-guanidino) = N=C(N)NC(=O)c1ccc(C(=O)*)[nH]1
propertyName: log Ks

Guide cases for log Ks, answers given:
molecule	log Ks
N=C(N)NC(=O)c1ccc(C(=O)NCCCC[C@H](NC(=O)[C@H](CCCCNC(=O)c2ccc(C(=O)NC(=N)N)[nH]2)NC(=O)[C@H](CCCCNC(=O)c2ccc(C(=O)NC(=N)N)[nH]2)NC(=O)[C@@H](N)CCCCNC(=O)c2ccc(C(=O)NC(=N)N)[nH]2)C(N)=O)[nH]1 (H-K(Pyrrole2CO(5-CO-guanidino))K(Pyrrole2CO(5-CO-guanidino))K(Pyrrole2CO(5-CO-guanidino))K(Pyrrole2CO(5-CO-guanidino))-NH2)	7
N=C(N)NC(=O)c1ccc(C(=O)NCCCC[C@H](NC(=O)[C@H](CCCCN)NC(=O)[C@H](CCCCN)NC(=O)[C@@H](N)CCCCN)C(N)=O)[nH]1 (H-KKKK(Pyrrole2CO(5-CO-guanidino))-NH2)	5.3
N=C(N)NC(=O)c1ccc(C(=O)NCCCC[C@H](NC(=O)[C@H](CCCCNC(=O)c2ccc(C(=O)NC(=N)N)[nH]2)NC(=O)c2ccc(C(=O)NC(=N)N)[nH]2)C(N)=O)[nH]1	4.2

Now look at this one.
Task: Requested field: log Ks. Item: `N=C(N)NC(=O)c1ccc(C(=O)NCCCC[C@H](NC(=O)[C@@H](N)CCCCNC(=O)c2ccc(C(=O)NC(=N)N)[nH]2)C(N)=O)[nH]1`
Output: 3.7
